All values here come from patent US10941158B2.

Tested on: Diplodia maydis (Dm)
Test: Growth inhibition assay of fungal pathogens
Assay type: cell-based
Settings: Stenocarpella maydis, 48 h, Table 4b, read-out: Concentration at 90% Inhibition Dm
Description: Compounds of the present invention were evaluated in a growth inhibition assay to determine the ability to control the growth of fungal pathogens, such as Botrtyis cinerea (Bc), Collectotrichum graminicola (Cg). […] Once the compound was added, a true final concentration of compound in each well was measured by an OD600 reading, which adjusted for any compound precipitation that might have occurred in the well. Plate readings were repeated at both 24 and 48 hours. […]
Field: IC90. Provide a value for each of the molecules that follow.
Unit µg/mL implied. Number only.

Dear colleague, I am looking for the recorded IC90 of the following molecule: COc1ccccc1[C@H](Cn1c(=O)n(C(C)(C)C(=O)N2CCCCC2)c(=O)c2c(C)c(-n3cccn3)sc21)OCC(C)C 2

Record request: IC90 value, item COc1ccccc1[C@H](Cn1c(=O)n(C(C)(C)C(=O)N2CCCC2)c(=O)c2c(C)c(-n3cccn3)sc21)OC(C)C 2

Fill in: IC90 of COc1ccc(F)cc1[C@H](Cn1c(=O)n(C(C)(C)C(=O)N2CCCC2)c(=O)c2c(C)c(-n3cccn3)sc21)OC1CCOCC1 is ___ 2

Requested field: IC90. Item: COc1ccccc1[C@H](Cn1c(=O)n(C(C)(C)C(N)=O)c(=O)c2c(C)c(-n3cccn3)sc21)OCC(C)C 10

Can you look up the measured IC90 of COc1ccc(F)cc1[C@@H](O)Cn1c(=O)n(C(C)(C)C(=O)NC(C)C)c(=O)c2c(C)c(-n3cccn3)sc21 for me? 10

Item under review: COc1ccc(F)cc1[C@H](Cn1c(=O)n(C(C)(C)C(=O)N2CC=CC2)c(=O)c2c(C)c(-n3cccn3)sc21)OC1CCOCC1 . Reported IC90? 10

IC90 for COc1ccccc1[C@H](Cn1c(=O)n(C(C)(C)C(=O)NC(C)C)c(=O)c2c(C)c(-n3cccn3)sc21)OC1CCOCC1 ? 10

For the molecule COc1ccc(F)cc1[C@H](Cn1c(=O)n(C(C)(C)C(=O)N2CCCCC2)c(=O)c2c(C)c(-n3cccn3)sc21)OC1CCOCC1 , what IC90 is on record? 2

Requested field: IC90. Item: COCCO[C@@H](Cn1c(=O)n([C@@H](C)C(=O)N2CCCC2)c(=O)c2c(C)c(-n3cccn3)sc21)c1cc(F)ccc1OC 2

Look up IC90: COc1ccc(F)cc1[C@H](Cn1c(=O)n(C(C)(C)C(=O)N2CCCCC2)c(=O)c2c(C)c(-n3cccn3)sc21)OC(C)C 0.4

Bench note: what IC90 did COc1ccc(F)cc1[C@H](Cn1c(=O)n(C(C)(C)C(N)=O)c(=O)c2c(C)c(-n3cccn3)sc21)O[C@H]1CC[C@@H](O)CC1 show? 10

###

tested on: Fusarium virguliforme (Fv); assay: Growth inhibition assay of fungal pathogens; type: cell-based; details: 48 h, Table 4b, 48 hours, read-out: Concentration at 90% Inhibition Fv
measure name: IC90 (µg/mL)
Kindly answer with a numeric value in µg/mL, unit omitted.

Look at this compound and give its reported IC90. COc1ccc(F)cc1[C@H](Cn1c(=O)n(C(C)(C)C(=O)N2CCCC2)c(=O)c2c(C)c(-n3cccn3)sc21)OC[C@@H](C)O [Compound I-37] 2

So what does the record say about IC90 for COc1ccc(F)cc1[C@H](Cn1c(=O)n(C(C)(C)C(=O)N2CCCC2)c(=O)c2c(C)c(-n3cccn3)sc21)OCCO [Compound I-36] ? 2

Can you share its IC90? I mean this compound: COc1ccc(F)cc1[C@H](Cn1c(=O)n(C(C)(C)C(=O)O)c(=O)c2c(C)c(-n3cccn3)sc21)OCCC#N [Compound I-82] 10

For the compound shown here, COc1ccc(F)cc1[C@H](Cn1c(=O)n(C(C)(C)C(=O)N2CCOCC2)c(=O)c2c(C)c(-n3cccn3)sc21)OC(C)C [Compound I-3] , give the reported IC90. 2

Query: IC90; subject: COc1ccc(F)cc1[C@H](Cn1c(=O)n(C(C)(C)C(=O)N2CCCC2)c(=O)c2c(C)c(-n3cccn3)sc21)OC1CCOCC1 [Compound I-7] 10

I would be grateful if you could share the reported IC90 for COCCO[C@@H](Cn1c(=O)n(C(C)(C)C(=O)NC2CCC2)c(=O)c2c(C)c(-n3cccn3)sc21)c1cc(F)ccc1OC [Compound I-47] . 2

If you can, please state the reported IC90 value of COc1ccc(F)cc1[C@H](Cn1c(=O)n(C(C)(C)C(=O)N2CC=CC2)c(=O)c2c(C)c(-n3cccn3)sc21)OC1CCOCC1 [Compound I-45] . 10

###

Task for the reader: assign each of the following molecules its reported IC90.
tested on: Botrtyis cinerea (Bc); experiment: Growth inhibition assay of fungal pathogens; format: cell-based; conditions: 48 h, Table 4b, read-out: Concentration at 90% Inhibition Bc
The reply should contain only the number, in µg/mL.

Dear colleague, I am looking for the recorded IC90 of the following molecule: COc1ccccc1[C@H](Cn1c(=O)n(C(C)(C)C(=O)N2CCCC2)c(=O)c2c(C)c(-n3cccn3)sc21)OCC(C)C 2

Look up IC90 for this molecule: COc1ccc(F)cc1[C@H](Cn1c(=O)n(C(C)(C)C(=O)NC(C)C)c(=O)c2c(C)c(-n3cccn3)sc21)O[C@H]1CC[C@@H](O)CC1 0.4

Quick one: IC90 for COc1ccc(F)cc1[C@H](Cn1c(=O)n(C(C)C(=O)N2CCCC2)c(=O)c2c(C)c(-n3cccn3)sc21)OC(C)C (stereo partly drawn) ? 0.4

I have this molecule here, COc1ccc(F)cc1[C@H](Cn1c(=O)n(C(C)(C)C(=O)NC(C)C)c(=O)c2c(C)c(-n3cccn3)sc21)OC[C@H](C)O , and I need its recorded IC90. 2

May I ask what IC90 has been recorded for COc1ccc(F)cc1[C@H](Cn1c(=O)n(C(C)(C)C(=O)NC(C)C)c(=O)c2c(C)c(-n3cccn3)sc21)OC[C@@H](C)O ? 2

GET /values?readout=IC90&item= COc1ccc(F)cc1[C@H](Cn1c(=O)n([C@H](C)C(=O)NC(C)C)c(=O)c2c(C)c(-n3cccn3)sc21)OC(C)C 2

// query IC90 value for entry COc1ccc(F)cc1[C@H](Cn1c(=O)n(C(C)(C)C(=O)N2CCCC2)c(=O)c2c(C)c(-n3cccn3)sc21)OCCC#N 0.4

Using the record for COc1ccccc1[C@H](Cn1c(=O)n(C(C)(C)C(=O)N2CCCCC2)c(=O)c2c(C)c(-n3cccn3)sc21)OC(C)C , report its IC90. 0.4

Param item = COc1ccc(F)cc1[C@H](Cn1c(=O)n(CC(=O)N2CCCC2)c(=O)c2c(C)c(-n3cccn3)sc21)OC(C)C ; retrieve measured IC90. 2

Given COCCO[C@@H](Cn1c(=O)n(C(C)(C)C(=O)NC2CCCCC2)c(=O)c2c(C)c(-n3cccn3)sc21)c1cc(F)ccc1OC , state its recorded IC90. 10

For COCCO[C@@H](Cn1c(=O)n([C@@H](C)C(=O)N2CCCC2)c(=O)c2c(C)c(-n3cccn3)sc21)c1cc(F)ccc1OC , what is its reported IC90? 2

IC90 lookup needed for COc1ccc(F)cc1[C@H](Cn1c(=O)n(C(C)(C)C(=O)NC(C)C)c(=O)c2c(C)c(-n3cccn3)sc21)OC(C)C.I , thanks. 0.4

Bench note: what IC90 did COc1ccccc1[C@H](Cn1c(=O)n(C(C)(C)C(=O)O)c(=O)c2c(C)c(-n3cccn3)sc21)OCCC#N show? 0.4

Entry COc1ccccc1[C@H](Cn1c(=O)n(C(C)(C)C(=O)NC(C)C)c(=O)c2c(C)c(-n3cccn3)sc21)OC(C)C has what IC90? 2

###

Record form. Attribute: IC50. Fill in for each entry.

For the record Cc1c(-n2cccn2)sc2c1c(=O)n(C(C)(C)C(=O)N1CCCC1)c(=O)n2C[C@H](OC1CCOCC1)c1cc(F)ccc1OCCO , what value of IC50 is listed for UniProt:O00763? 3 to 10 nM

Request body: readout IC50, system UniProt:O00763, query COc1ccc(F)cc1[C@H](Cn1c(=O)n(C(C)C(N)=O)c(=O)c2c(C)c(-n3cccn3)sc21)OCCO (some centres unmarked) . Return the value. 10 to 40 nM

Lab note: need IC50 with UniProt:O00763 for entry COc1ccc(F)cc1[C@H](Cn1c(=O)n(C(C)(C)C(=O)NC(C)C)c(=O)c2c(C)c(-n3cccn3)sc21)OC[C@H](C)O , please look it up. 10 to 40 nM

Query IC50 on UniProt:O00763 for COc1ccccc1[C@H](Cn1c(=O)n(C(C)(C)C(=O)N2CCCC2)c(=O)c2c(C)c(-n3cccn3)sc21)OC1CCOCC1 3 to 10 nM

UniProt:O00763 / IC50 / COc1ccccc1[C@H](Cn1c(=O)n(C(C)(C)C(=O)N2CCCCC2)c(=O)c2c(C)c(-n3cccn3)sc21)OC1CCOCC1 : value? 10 to 40 nM

Query the reported IC50 for UniProt:O00763; item: COc1ccccc1[C@H](Cn1c(=O)n(C(C)(C)C(=O)N2CCCCC2)c(=O)c2c(C)c(-n3cccn3)sc21)OCC(C)C 10 to 40 nM

Fill in the recorded IC50 for this molecule, with UniProt:O00763 as test system: COc1ccc(F)cc1[C@H](Cn1c(=O)n(C(C)C(=O)N2CCCC2)c(=O)c2c(C)c(-n3cccn3)sc21)OCCO (some centres unmarked) 3 to 10 nM

Could you share what IC50 was measured for Cc1c(-n2cccn2)sc2c1c(=O)n(C(C)(C)C(=O)NC(C)C)c(=O)n2C[C@H](OC1CCOCC1)c1cc(F)ccc1OCC1COC1 , tested on UniProt:O00763? 3 to 10 nM

Under UniProt:O00763: IC50 value of COc1ccc(F)cc1[C@H](Cn1c(=O)n(C(C)(C)C(=O)NC(C)C)c(=O)c2c(C)c(-n3cccn3)sc21)OC1CCOCC1 ? 10 to 40 nM

Observed IC50 on UniProt:O00763 for COc1ccc(F)cc1[C@H](Cn1c(=O)n(C(C)C(=O)N2CCCC2)c(=O)c2c(C)c(-n3cccn3)sc21)OC(C)C (some centres unmarked) , please. 3 to 10 nM

Record COc1ccc(F)cc1[C@H](Cn1c(=O)n([C@H](C)C(=O)NC(C)C)c(=O)c2c(C)c(-n3cccn3)sc21)OC(C)C : what is its IC50 with UniProt:O00763? 3 to 10 nM

Short answer please: IC50, UniProt:O00763, entry COc1ccc(F)cc1[C@H](Cn1c(=O)n(C(C)C(=O)O)c(=O)c2c(C)c(-n3cccn3)sc21)OCCO (some centres unmarked) 3 to 10 nM

Tell me reported IC50 for COc1ccccc1[C@H](Cn1c(=O)n(C(C)(C)C(=O)NC(C)C)c(=O)c2c(C)c(-n3cccn3)sc21)OC(C)C , tested with UniProt:O00763. 3 to 10 nM

Value wanted: IC50 (UniProt:O00763) of entry COc1ccc(F)cc1[C@H](Cn1c(=O)n(C(C)C(=O)O)c(=O)c2c(C)c(-n3cccn3)sc21)OCC(C)=O (some centres unmarked) 10 to 40 nM
